Recorded Kd for the following binders
- testTarget: T1, GFP-9S library array, motif 4 ND N98F;D124P (synthetic construct, N98F;D124P)
- T1 chain: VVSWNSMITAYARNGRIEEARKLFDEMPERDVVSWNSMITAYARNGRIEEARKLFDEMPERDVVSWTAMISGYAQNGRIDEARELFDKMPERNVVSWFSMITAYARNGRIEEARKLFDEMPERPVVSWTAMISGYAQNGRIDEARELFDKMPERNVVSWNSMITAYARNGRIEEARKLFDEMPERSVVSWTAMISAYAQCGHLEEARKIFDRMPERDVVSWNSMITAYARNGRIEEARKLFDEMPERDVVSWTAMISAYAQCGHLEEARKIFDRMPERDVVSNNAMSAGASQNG
- methodNotes: high-throughput RNA pulldown from lysate on Ni-NTA beads; HRP: 50 mM Tris pH 8, 150 mM NaCl, 1 mM beta-mercaptoethanol, 50 ug/ml BSA, 3 ug/ml yeast RNA, 0.5% heparin; ITC and FP: Tris pH 8, 200 mM KCl, 5% glycerol; MST: 50 mM Tris pH 8, 200 mM NaCl, 1 mM DTT, BSA, heparin, 0.05% Tween 20
- conditionLabel: tags: N-terminal His-eGFP; label: 5' Cy5
Write the numeric value and follow it with the unit.

1. AUUAGACGUGA (ssRNA) [Cy5-rpoA-G]; 181 nM

API: the following record is the query input.
Fill in reported Kd for this entry: AUUACACGUGA (ssRNA) [Cy5-rpoA] 140 nM
